Test: qHTS assay for identifying genotoxic compounds that show differential cytotoxicity against isogenic chicken DT40 cell lines with known DNA damage response pathways - wild type cell line (AID 743012); also: nearly all actives have a fitted effect of over 60% in size
Conditions: DT40 wild type chicken cells viability, CellTiter-Glo, 40 h; series mostly up to 68.4 µM
Description: U.S. Tox21 Program National Center for Advancing Translational Sciences [NCATS] NIH Chemical Genomics Center [NCGC] U.S. Environmental Protection Agency [EPA] National Institutes of Environmental Health Sciences [NIEHS] National Toxicology Program [NTP] U.S. Food and Drug Administration [FDA] Tox21 Assay Overview: DNA repair pathways play a critical role in cellular homeostasis by repairing DNA damage induced by endogenous processes and xenobiotics. […]
Inconclusive results are not listed. Activity calls are given as the source filed them. Calls follow the shape of the dose curve; as a rule, active = well fitted cell-killing curve with a large enough effect in the repeat runs; inconclusive = weak or mixed curves, or effect the other way; inactive = no such curve, though single readings can be large or run the other way.
Classes used: T = active, F = inactive

[[record]]
compound = "CC(CC=O)c1ccccc1 (centres undefined)"
cat = "F"

[[record]]
compound = "COc1ccc(C(=O)N2CCN(CC(=O)N3CCOCC3)CC2)cc1"
cat = "F"

[[record]]
compound = "O=C(OCCc1ccccc1)c1ccccc1"
cat = "F"

[[record]]
compound = "CNCCCN1c2ccccc2CCc2ccccc21"
cat = "T"

